# Test system: U251 CNS
# experimental-details: NCI tumour cell line growth inhibition, 48 h
// reported TGI per item
experimental-endpoint: TGI

INSERT INTO results (compound, experimental_endpoint, result) VALUES
  ('COC(=O)CC1C2CC3C(C2=O)C13 (stereo not drawn)', 'TGI', '> 100 µM'),
  ('NS(=O)(=O)c1ccc(/C=C/c2cccc(O)c2)cc1', 'TGI', '> 100 µM'),
  ('CC/C=C\C[C@H](O)C/C=C1/C(=O)C=C[C@@H]1C/C=C\CCCC(N)=O', 'TGI', '4.12 µM');

====

// reported TGI per item
# Tested on: SK-MEL-2 melanoma
# experimental-details: NCI tumour cell line growth inhibition, 48 h
experimental-endpoint: TGI

INSERT INTO assay_data (molecule, test_target, result) VALUES
  ('CCCCc1cc(O)ccc1O', 'SK-MEL-2 melanoma', '> 100 µM'),
  ('O=C1NC(N2CCOCC2)=N/C1=C\c1ccccc1O', 'SK-MEL-2 melanoma', '> 100 µM'),
  ('CCCCNC(=S)Nc1nc(C(=O)NNS(=O)(=O)c2ccccc2)cs1', 'SK-MEL-2 melanoma', '43.8 µM'),
  ('Cc1ccc(S(=O)(=O)NCCN2c3nc4ccccc4cc3Sc3cc4ccccc4nc32)cc1', 'SK-MEL-2 melanoma', '> 80.2 µM'),
  ('CC[C@H]1C=CCC[C@@]2(C[C@@H]3CC[C@@H]4[C@H](C(=O)OCCCCCCCCCCCCCCCC(=O)N(CCCN)C[C@@H](O)CCN)[C@]5(CCC[C@@H](C)O5)NC(=[N+]34)N2)O1', 'SK-MEL-2 melanoma', '0.673 µM'),
  ('CCCN(CCCCC(NC(C)=O)C(=O)NCc1ccccc1)C(=O)NC (stereo unspecified)', 'SK-MEL-2 melanoma', '> 100 µM'),
  ('N#CC(c1ccccc1)c1cccc2ccccc12 (stereo unspecified)', 'SK-MEL-2 melanoma', '56.2 µM'),
  ('CCOC(=O)/C=C(/C(=O)OCC)n1cc(C)c(=O)n(Cc2cnnn2CCCCOC(C)=O)c1=O', 'SK-MEL-2 melanoma', '> 100 µM'),
  ('Cc1c(C(=O)CC(=O)C(=O)NC2C3CC4CC(C3)CC2C4)[n+](=O)c2ccccc2n1[O-] (stereo unspecified)', 'SK-MEL-2 melanoma', '> 100 µM'),
  ('COc1nc2c(c(=O)n1C)N[C@@H]1[C@@H](O)[C@H](O)CO[C@@H]1N2', 'SK-MEL-2 melanoma', '> 100 µM'),
  ('COc1cccc(-c2cc(=O)c3cc(C)cnc3[nH]2)c1', 'SK-MEL-2 melanoma', '7.45 µM'),
  ('CN(C)Cc1cc(C(=O)O)cc(CN(C)C)c1O', 'SK-MEL-2 melanoma', '> 100 µM'),
  ('O=c1[nH]cnc2c1ncn2[C@H]1CO[C@@H](CO)[C@@H]1O', 'SK-MEL-2 melanoma', '> 100 µM'),
  ('CCCCS(=N)(=O)CC[C@H](N)C(=O)O (stereo partly specified)', 'SK-MEL-2 melanoma', '> 10000 µM'),
  ('CN(C)c1ccc(C(c2ccc(N(C)C)cc2)c2ccc([N+](=O)[O-])cc2)cc1', 'SK-MEL-2 melanoma', '> 100 µM'),
  ('Cc1ccc(-c2cc3nc(-c4ccccc4)nc(C(Cl)Cl)n3n2)cc1', 'SK-MEL-2 melanoma', '19.7 µM'),
  ('c1ccc2c(c1)SC1Sc3ccccc3[S+]21 (stereo unspecified)', 'SK-MEL-2 melanoma', '> 100 µM'),
  ('CCOC(OC1=C(C#N)CCC1)C(CC)[Se]c1ccccc1 (stereo unspecified)', 'SK-MEL-2 melanoma', '80.8 µM'),
  ('Cc1ccc(N2C(=O)C(Cl)=C(Nc3cccc(O)c3)C2=O)cc1Cl', 'SK-MEL-2 melanoma', '> 100 µM'),
  ('COc1ccc([N+](=O)[O-])c2c(NCC(O)CO)ccnc12 (stereo unspecified)', 'SK-MEL-2 melanoma', '71.9 µM'),
  ('Cc1ccc2c3c1O[C@H]1c4nc5ccccc5cc4C[C@@]4(O)[C@@H](C2)N(CC2CC2)CC[C@]314', 'SK-MEL-2 melanoma', '35.5 µM');

====

# Tested on: LXFL 529 NSCLC
# experimental-details: NCI tumour cell line growth inhibition, 48 h
// reported TGI per item
experimental-endpoint: TGI

INSERT INTO results (molecule, experimental_endpoint, result) VALUES
  ('Cc1c(C(=O)CC(=O)C(=O)NC2C3CC4CC(C3)CC2C4)[n+](=O)c2ccccc2n1[O-] (stereo unspecified)', 'TGI', '> 100 µM'),
  ('C=CCN(N=O)C(=O)N(CCC)CCCC(NC(C)=O)C(=O)NCc1ccccc1 (stereo unspecified)', 'TGI', '> 100 µM'),
  ('CCOC(=O)c1c2ccc(/C=C/C(=O)OC)ccc-2c(C(=O)OCC)c1N', 'TGI', '> 100 µM'),
  ('CCOC(OC1=C(C#N)CCC1)C(CC)[Se]c1ccccc1 (stereo unspecified)', 'TGI', '48.5 µM'),
  ('CC1(C)OC2C(=O)OC(COCc3ccccc3)C2O1 (stereo unspecified)', 'TGI', '> 100 µM'),
  ('CC(=O)O/C(C)=C\C(=O)O/N=C(\N)c1ccc(C)cc1', 'TGI', '59.9 µM'),
  ('Cc1ccc(S(=O)(=O)ON/N=C2/C3OC3[C@@H]3CCCC[C@H]23)cc1 (stereo partly specified)', 'TGI', '> 100 µM'),
  ('c1cncc(C2c3[nH]c4ccccc4c3CCN2CCN2CCCCC2)c1 (stereo unspecified)', 'TGI', '> 100 µM'),
  ('CCCc1ccc(N=Cc2cc(OC)c(OC)c(OC)c2)cc1', 'TGI', '> 100 µM'),
  ('Cc1ccc(-n2c(C)nc3c2C(=O)c2ccccc2C3=O)cc1', 'TGI', '> 100 µM'),
  ('O=C(c1ccco1)N(C(=S)N1CCN(c2ccccc2)CC1)c1ccccc1', 'TGI', '> 100 µM');

====

# Test system: SW-620 colon
Classes used: active, inactive

INSERT INTO assay_data (compound, qualitative_label) VALUES
  ('CCOC(=O)/C(C1=CC(=O)C(=O)c2ccccc21)=C(/C)NCc1ccccc1', 'inactive'),
  ('OC1CCC(Oc2cccc3cnc(Nc4ccc5nc[nH]c5c4)nc23)CC1 (stereo unspecified)', 'active'),
  ('CCOC(=O)/C=C/c1ccc(C(=O)OCC)[nH]1', 'inactive'),
  ('CCCCc1cc(O)ccc1O', 'inactive'),
  ('CC1(C)C(=O)/C(=C\c2ccco2)C[C@]2(C)[C@H]3CC=C4[C@@H]5C[C@](C)(C(=O)O)CC[C@]5(C)CC[C@@]4(C)[C@]3(C)CC[C@@H]12', 'inactive'),
  ('CCN(CC)C(=S)SSC1CCCCC1', 'inactive'),
  ('[Cl][Sn]([c]1ccccc1)[c]1ccccc1', 'inactive'),
  ('ClCCn1cnc2c(SCc3ccccc3)ncnc21', 'inactive'),
  ('O=C1C=C(c2cc(Br)c(O)c(Br)c2)/C(=C/c2cc(Br)c(O)c(Br)c2)O1', 'inactive'),
  ('N#CC1C(N)=NNC1c1ccc(-c2ccc(-c3nc4ccccc4o3)cc2)o1 (stereo unspecified)', 'inactive'),
  ('C=C(CNCCO)[C@@H]1CC[C@]2(CO)CC[C@]3(C)[C@H](CC[C@@H]4[C@@]5(C)CCC(NCCc6ccc(O)cc6)C(C)(C)[C@@H]5CC[C@]43C)[C@@H]12 (stereo partly specified)', 'inactive');

====

# Tested on: SK-MEL-5 melanoma
# experimental-details: NCI tumour cell line growth inhibition, 48 h
// reported TGI per item
experimental-endpoint: TGI

INSERT INTO assay_data (compound, result) VALUES
  ('O=C(c1ccco1)N(C(=S)N1CCN(c2ccccc2)CC1)c1ccccc1', '> 100 µM'),
  ('COC(=O)/C(=N/NC(C)(C)C)C(C(=O)C=C(C)C)C(=O)C(=O)Nc1ccc(Cl)cc1C (stereo not drawn)', '> 100 µM'),
  ('ClCCn1cnc2c(SCc3ccccc3)ncnc21', '> 100 µM'),
  ('NC(=O)c1ccccc1NC(=O)C(=O)C(c1cnc2ccc([N+](=O)[O-])cc2n1)[N+](=O)[O-] (stereo not drawn)', '> 100 µM'),
  ('Nc1nc(N)c2ncn(CC(CO)CC(c3ccccc3)P(=O)(O)O)c2n1 (stereo not drawn)', '> 100 µM'),
  ('CCOC(=O)/C=C/c1ccc(C(=O)OCC)[nH]1', '8.01 µM'),
  ('O=C1NC(=O)C(c2ccccc2Cl)=C1Nc1cccc(O)c1', '> 25 µM'),
  ('C/C(=C\CCC1=CC(=O)OC1)CC[C@@H]1[C@H]2C(=O)CC(C)[C@@]3(C)CC[C@]1(C)[C@@]23C (stereo partly drawn)', '> 10 µM');
